- measured-on: HLA-DRB1*08:02 (Homo sapiens, UniProt P01903+P01911, A100R/A103L/A169T/F76Y/H45Y/I96F/K41T/L162R/M171V/P40S/Q125H/Q178H/Q39Y/Q99D/R218S/R42G/S66Y/V115G/W38E)
- assay-overview: biochemical
Please go through the items and note down their IC50.
One number for each entry, in µM.

# count of solved cases: 2
molecule	IC50, µM
CC[C@H](C)[C@H](NC(=O)[C@H](CC(=O)O)NC(=O)CNC(=O)[C@H](CC(C)C)NC(=O)[C@H](CS)NC(=O)[C@H](CC(=O)O)NC(=O)CNC(=O)[C@H](Cc1ccc(O)cc1)NC(=O)[C@H](CCC(N)=O)NC(=O)[C@H](CCCCN)NC(=O)[C@@H](NC(=O)[C@H](Cc1ccccc1)NC(=O)CNC(=O)[C@H](C)N)[C@@H](C)CC)C(=O)N[C@@H](C)C(=O)O [peptide 167]	22.3
CC[C@H](C)[C@H](NC(=O)[C@H](Cc1ccccc1)NC(=O)[C@H](CO)NC(=O)[C@H](CCCNC(=N)N)NC(=O)[C@H](CCCCN)NC(=O)[C@H](CO)NC(=O)[C@@H]1CCCN1C(=O)[C@@H](N)CCCCN)C(=O)N[C@@H](CCC(=O)O)C(=O)N[C@@H](CC(=O)O)C(=O)N[C@@H](CC(C)C)C(=O)N[C@@H](CC(C)C)C(=O)N[C@@H](Cc1ccccc1)C(=O)N[C@@H](CC(N)=O)C(=O)N[C@@H](CCCCN)C(=O)O [peptide 163]	3.41

Exercise: What value of IC50 has been recorded for this entry: CC[C@H](C)[C@H](NC(=O)[C@H](Cc1ccccc1)NC(=O)[C@@H](N)CO)C(=O)N[C@@H](CCC(=O)O)C(=O)N[C@@H](CC(=O)O)C(=O)N[C@@H](CC(C)C)C(=O)N[C@@H](CC(C)C)C(=O)N[C@@H](Cc1ccccc1)C(=O)N[C@@H](CC(N)=O)C(=O)N[C@@H](CCCCN)C(=O)N[C@H](C(=O)N[C@H](C(=O)N[C@@H](CC(C)C)C(=O)N[C@@H](C)C(=O)N[C@@H](CC(=O)O)C(=O)O)[C@@H](C)O)C(C)C [peptide 164]
Solution: 15.2

====

Record form. Attribute: log10 IC50. Fill in for each entry.
- measured-on: HLA-DRB1*12:01 (Homo sapiens, UniProt P01903+P01911, A100R/A169T/D57E/D86V/F55L/H45Y/K41T/L162R/M171V/P40S/Q125H/Q178H/Q39Y/Q99D/R42G/S66L/T262R/V114A/V67L/W38E/Y59H/Y61H/Y89S)
- assay-overview: biochemical
Field: value | Transform: log10 | Quantity: IC50 | Unit: nM

Look over these answered cases.
compound	log10 IC50
CSCC[C@H](NC(=O)[C@H](CC(C)C)NC(=O)[C@H](Cc1ccccc1)NC(=O)[C@@H]1CCCN1C(=O)[C@H](CCC(N)=O)NC(=O)[C@H](CO)NC(=O)[C@@H](NC(=O)[C@H](Cc1ccc(O)cc1)NC(=O)[C@H](CCC(=O)O)NC(=O)[C@H](Cc1ccccc1)NC(=O)[C@@H](NC(=O)[C@@H](N)CS)[C@@H](C)O)C(C)C)C(=O)N[C@@H](CC(=O)O)C(=O)N[C@@H](CC(C)C)C(=O)N[C@@H](CCC(=O)O)C(=O)O [peptide 34]	2.62
CC[C@H](C)[C@H](NC(=O)[C@H](Cc1ccccc1)NC(=O)[C@H](CO)NC(=O)[C@H](CCCNC(=N)N)NC(=O)[C@H](CCCCN)NC(=O)[C@H](CO)NC(=O)[C@@H]1CCCN1C(=O)[C@@H](N)CCCCN)C(=O)N[C@@H](CCC(=O)O)C(=O)N[C@@H](CC(=O)O)C(=O)N[C@@H](CC(C)C)C(=O)N[C@@H](CC(C)C)C(=O)N[C@@H](Cc1ccccc1)C(=O)N[C@@H](CC(N)=O)C(=O)N[C@@H](CCCCN)C(=O)O [peptide 163]	3.60
CC[C@H](C)[C@H](NC(=O)[C@H](Cc1ccccc1)NC(=O)[C@@H](N)CO)C(=O)N[C@@H](CCC(=O)O)C(=O)N[C@@H](CC(=O)O)C(=O)N[C@@H](CC(C)C)C(=O)N[C@@H](CC(C)C)C(=O)N[C@@H](Cc1ccccc1)C(=O)N[C@@H](CC(N)=O)C(=O)N[C@@H](CCCCN)C(=O)N[C@H](C(=O)N[C@H](C(=O)N[C@@H](CC(C)C)C(=O)N[C@@H](C)C(=O)N[C@@H](CC(=O)O)C(=O)O)[C@@H](C)O)C(C)C [peptide 164]	2.73
CC[C@H](C)[C@H](NC(=O)[C@H](CCCNC(=N)N)NC(=O)[C@H](CCCCN)NC(=O)[C@H](CCCNC(=N)N)NC(=O)[C@H](CC(N)=O)NC(=O)[C@H](Cc1c[nH]c2ccccc12)NC(=O)[C@H](C)NC(=O)[C@H](Cc1ccc(O)cc1)NC(=O)[C@@H](NC(=O)[C@H](CO)NC(=O)[C@H](C)NC(=O)[C@H](Cc1ccccc1)NC(=O)[C@@H](N)CCCNC(=N)N)C(C)C)C(=O)N[C@@H](CO)C(=O)N[C@@H](CC(N)=O)C(=O)O [compound 70]	4.50
CC[C@H](C)[C@H](N)C(=O)N1CCC[C@H]1C(=O)N[C@@H](Cc1ccccc1)C(=O)N[C@@H](C)C(=O)N[C@@H](CCSC)C(=O)N[C@@H](CCC(N)=O)C(=O)N[C@@H](CCSC)C(=O)N[C@@H](C)C(=O)N[C@@H](Cc1ccc(O)cc1)C(=O)N[C@@H](CCCNC(=N)N)C(=O)N[C@@H](Cc1ccccc1)C(=O)N[C@@H](CC(N)=O)C(=O)NCC(=O)N[C@H](C(=O)NCC(=O)O)[C@@H](C)CC [peptide 180]	0.34

// each compound listed below needs its log10 IC50
1. CC[C@H](C)[C@H](NC(=O)[C@H](CCCCN)NC(=O)[C@@H](N)Cc1ccccc1)C(=O)N[C@@H](Cc1ccc(O)cc1)C(=O)N[C@@H](CO)C(=O)N[C@@H](CCCCN)C(=O)N[C@@H](Cc1c[nH]cn1)C(=O)N[C@H](C(=O)N1CCC[C@H]1C(=O)N[C@H](C(=O)N[C@@H](CC(N)=O)C(=O)N[C@@H](CC(C)C)C(=O)N[C@H](C(=O)N[C@@H](CCCNC(=N)N)C(=O)N[C@@H](CC(=O)O)C(=O)O)C(C)C)[C@@H](C)CC)[C@@H](C)O [peptide 41]
2. CC[C@H](C)[C@H](NC(=O)CN)C(=O)N[C@@H](Cc1ccc(O)cc1)C(=O)N[C@@H](CCC(N)=O)C(=O)N[C@H](C(=O)N[C@@H](CO)C(=O)N[C@@H](CC(N)=O)C(=O)N[C@@H](Cc1ccccc1)C(=O)N[C@@H](CCCNC(=N)N)C(=O)N[C@H](C(=O)N[C@@H](CCC(N)=O)C(=O)N1CCC[C@H]1C(=O)N[C@H](C(=O)N[C@@H](CCC(=O)O)C(=O)N[C@@H](CO)C(=O)O)[C@@H](C)O)C(C)C)[C@@H](C)O [compound 63]
3. CC(C)[C@H](NC(=O)CNC(=O)[C@H](Cc1ccc(O)cc1)NC(=O)[C@H](CS)NC(=O)[C@H](CCCCN)NC(=O)[C@H](Cc1ccccc1)NC(=O)[C@@H](NC(=O)[C@H](CO)NC(=O)[C@H](Cc1ccccc1)NC(=O)[C@H](CO)NC(=O)[C@H](C)NC(=O)[C@@H](N)CO)[C@@H](C)O)C(=O)N[C@@H](CO)C(=O)N1CCC[C@H]1C(=O)N[C@H](C(=O)O)[C@@H](C)O [peptide 75]
4. CC(C)C[C@H](NC(=O)[C@H](CCCNC(=N)N)NC(=O)[C@H](Cc1ccc(O)cc1)NC(=O)[C@H](CC(C)C)NC(=O)[C@@H](N)Cc1ccc(O)cc1)C(=O)N[C@@H](Cc1ccccc1)C(=O)N[C@@H](CCCNC(=N)N)C(=O)N[C@@H](CCCCN)C(=O)N[C@@H](CO)C(=O)N[C@@H](CC(N)=O)C(=O)N[C@@H](CC(C)C)C(=O)N[C@@H](CCCCN)C(=O)N1CCC[C@H]1C(=O)N[C@@H](Cc1ccccc1)C(=O)N[C@@H](CCC(=O)O)C(=O)O [peptide 91]

Solution:
3.86
3.32
4.06
2.51
